All figures here come from patent US7875618B2.

Target: human recombinant PDE10A (Homo sapiens)
Construct: made in house; host or cells: SF21 insect cells (baculovirus)
Assay: Inhibition of human recombinant PDE10A ([3H]-cAMP SPA, Method B)
Format: biochemical
Settings: read-out: PDE10 inhibition IC50 [nM] PDE10A human
OUTCOME_MEASURE: IC50

Request: Which IC50 value is on record for COc1ccc2nc(C)c3c(C)nc(-c4cnccc4OC)n3c2c1 [Example 110] ?
Response: 10 to 100 nM

Request: // repeat for CCCc1nc(C)c2c(N)nc3ccc(OCC4CC4)cc3n12 [Example 39] and report
Response: 10 to 100 nM

Request: // repeat for Cc1ccsc1-c1nc(C)c2c(C)nc3ccccc3n12 [Example 99] and report
Response: 10 to 100 nM

Request: // repeat for COc1cc(OC)c2nc(C)c3c(C)nc(C4CCCCC4)n3c2c1 [Example 51] and report
Response: ≤ 10 nM

Request: // repeat for COc1cc2nc(C)c3c(C)nc(-c4cnccc4C)n3c2cc1Cl [Example 128] and report
Response: 10 to 100 nM

Request: // repeat for Cc1nc(C2CCCCC2)n2c1c(N)nc1ccc(OCC3CC3)cc12 [Example 40] and report
Response: ≥ 100 nM

Request: // repeat for CCCc1nc(C)c2c(N)nc3ccc(OC)cc3n12 [Example 7] and report
Response: 10 to 100 nM

Request: // repeat for COc1cc(F)cc2c1nc(C)c1c(C)nc(-c3ccccc3Cl)n12 [Example 85] and report
Response: ≤ 10 nM

Request: // repeat for Cc1nc(-c2ccc(F)c(C(N)=O)c2)n2c1c(C)nc1ccc(F)cc12 [Example 135] and report
Response: 10 to 100 nM

Request: // repeat for Cc1nc(-c2cccnc2)n2c1c(C)nc1ccc(F)cc12 [Example 144] and report
Response: ≥ 100 nM

Request: // repeat for Cc1nc(C2CCCCC2)n2c1c(C)nc1ccc(OCC3CC3)cc12 [Example 44] and report
Response: ≥ 100 nM

Request: // repeat for COc1ccncc1-c1nc(C)c2c(C)nc3ccc(F)cc3n12 [Example 140] and report
Response: ≥ 100 nM

Request: // repeat for COc1cc2nc(C)c3c(C)nc(-c4ccccc4Cl)n3c2cc1Cl [Example 129] and report
Response: ≤ 10 nM

Request: // repeat for COc1nc(C)c2c(C)nc3c(F)cc(F)cc3n12 [Example 73] and report
Response: ≥ 100 nM

Request: // repeat for COc1ccc2nc(C)c3c(C)nc(-c4cc(C(N)=O)ccc4F)n3c2c1 [Example 114] and report
Response: ≤ 10 nM

###

Target: human recombinant PDE10A (Homo sapiens, UniProt Q9Y233)
Construct: made in house; host or cells: SF21 insect cells (baculovirus)
Sequence (Q9Y233 1-779 isoform Q9Y233-1): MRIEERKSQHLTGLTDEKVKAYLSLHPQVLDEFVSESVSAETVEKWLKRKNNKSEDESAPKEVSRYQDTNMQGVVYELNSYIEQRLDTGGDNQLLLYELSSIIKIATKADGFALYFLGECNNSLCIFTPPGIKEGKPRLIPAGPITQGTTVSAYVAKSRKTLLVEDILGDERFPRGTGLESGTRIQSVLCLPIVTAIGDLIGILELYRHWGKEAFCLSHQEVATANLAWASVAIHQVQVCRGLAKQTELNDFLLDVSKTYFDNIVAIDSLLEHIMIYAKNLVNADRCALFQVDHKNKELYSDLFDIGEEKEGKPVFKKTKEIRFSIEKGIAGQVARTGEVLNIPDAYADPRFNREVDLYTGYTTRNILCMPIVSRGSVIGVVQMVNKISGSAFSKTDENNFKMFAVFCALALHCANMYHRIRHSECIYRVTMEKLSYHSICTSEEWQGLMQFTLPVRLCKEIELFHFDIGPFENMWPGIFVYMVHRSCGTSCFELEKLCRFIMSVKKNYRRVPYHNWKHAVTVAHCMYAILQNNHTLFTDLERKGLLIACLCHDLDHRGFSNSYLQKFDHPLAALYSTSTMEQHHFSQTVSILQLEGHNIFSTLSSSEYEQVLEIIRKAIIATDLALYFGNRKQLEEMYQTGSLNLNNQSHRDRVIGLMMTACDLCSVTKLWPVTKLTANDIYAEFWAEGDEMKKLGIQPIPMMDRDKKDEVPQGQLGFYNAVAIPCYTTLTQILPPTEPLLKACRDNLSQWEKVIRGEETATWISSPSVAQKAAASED
Test: Inhibition of human recombinant PDE10A ([3H]-cAMP SPA, Method B)
Assay type: biochemical
Conditions: read-out: PDE10 inhibition IC50 [nM] PDE10A human
Procedure: The gene was than inserted into a baculovirus vector, ligated with the baculovirus DNA. The enzyme-protein was expressed in SF21-cells. The enzyme was isolated from these cells by harvesting the cells by a centrifugation at 200 g to collect the cells. […] PDE10 activity was determined in a one step procedure in microtiterplates. […] One hour later the mixture was measured in a liquid scintillation counter for microtiterplates (Microbeta Trilux). […]
OUTCOME_MEASURE: IC50

Request: Which IC50 value is on record for COc1cc(F)c2nc(C)c3c(C)nc(-c4cccc(F)c4C)n3c2c1 ?
Response: ≤ 10 nM

Request: // repeat for Cc1nc(-c2ccccc2OC(F)(F)F)n2c1c(C)nc1ccc(F)cc12 and report
Response: ≥ 100 nM

Request: // repeat for COc1cc(OC)c2nc(C)c3c(C)nc(-c4ccccc4C)n3c2c1 and report
Response: ≤ 10 nM

Request: // repeat for COc1cc2nc(C)c3c(C)nc(-c4ccccc4C)n3c2cc1Cl and report
Response: ≤ 10 nM

Request: // repeat for COc1cccc2c1nc(C)c1c(C)nc(-c3ccccc3C)n12 and report
Response: ≤ 10 nM

Request: // repeat for Cc1nc(-c2ccc(F)c(C(N)=O)c2)n2c1c(C)nc1ccc(Cl)cc12 and report
Response: 10 to 100 nM

Request: // repeat for Cc1ccc(C(N)=O)cc1-c1nc(C)c2c(C)nc3ccc(F)cc3n12 and report
Response: 10 to 100 nM

Request: // repeat for CNC(=O)Nc1cccc(COc2ccc3c(c2)nc(C)c2c(C)nc(-c4ccccc4Cl)n23)c1 and report
Response: 10 to 100 nM

###

Biological target: PDE10 from pig striatum (Sus scrofa, UniProt A0A287B941)
Experiment: Inhibition of PDE10 from pig striatum ([3H]-cAMP SPA, Methods A and B)
Assay type: biochemical
Conditions: PDE10 pig
Would you mind telling me the reported IC50 of each entry?

Request: Which IC50 value is on record for CNC(=O)Nc1cccc(COc2ccc3c(c2)nc(C)c2c(C)nc(-c4ccccc4Cl)n23)c1 [Example 61] ?
Response: ≤ 10 nM

Request: // repeat for CCCc1nc(C)c2c(C)nc3c(OC)cc(OC)cc3n12 [Example 45] and report
Response: ≤ 10 nM

Request: // repeat for CCCc1nc(C)c2c(C)nc3ccccc3n12 [Example 9] and report
Response: 10 to 100 nM

Request: // repeat for Cc1nc(-c2cccc(Cl)c2)n2c1c(C)nc1ccc(F)cc12 [Example 21] and report
Response: 10 to 100 nM

Request: // repeat for Cc1nc(-c2ccccc2Cl)n2c1c(C)nc1cc(O)ccc12 [Example 55] and report
Response: 10 to 100 nM

###

OUTCOME_MEASURE: melting point

Request: Which melting point value is on record for COc1ccc2c(c1)nc(C)c1c(C)nc(-c3ccccc3Cl)n12 ?
Response: 186 to 188.5 °C

Request: // repeat for CCCc1nc(C)c2c(C)nc3c(OC)cc(OC)cc3n12 and report
Response: 185 to 187 °C

Request: // repeat for CCc1nc(C)c2c(C)nc3ccc(F)cc3n12 and report
Response: 139 to 142 °C

Request: // repeat for Cc1nc(C2CCCCC2)n2c1c(Cl)nc1ccc(F)cc12 [Intermediate B7] and report
Response: 205 to 210 °C

Request: // repeat for CCc1nc(C)c2c(Cl)nc3ccccc3n12 [Intermediate B3] and report
Response: 125 to 128 °C

Request: // repeat for CCCc1nc(C)c2c(C)nc3c(OCC(F)(F)F)cc(OCC(F)(F)F)cc3n12 and report
Response: 200 to 206 °C

Request: // repeat for CCCc1nc(C)c2c(C)nc3ccc(F)cc3n12 and report
Response: 140 to 144 °C

Request: // repeat for Cc1nc(C2CCCCC2)n2c1c(N)nc1ccc(OCC3CC3)cc12 and report
Response: 241 to 242 °C

Request: // repeat for COc1ccc2nc(C)c3c(C)nc(C4CCCCC4)n3c2c1 and report
Response: 165 to 169 °C

Request: // repeat for Cc1nc(-c2ccccc2Cl)n2c1c(C)nc1c(OCC3CC3)cc(OCC3CC3)cc12 and report
Response: 180 to 195 °C

Request: // repeat for COc1ccc2nc(Cl)c3c(C)nc(C4CCCCC4)n3c2c1 [Intermediate B11] and report
Response: 212 to 215 °C

Request: // repeat for CCCc1nc(C)c2c(N)nc3ccccc3n12 and report
Response: 187 to 188 °C

Request: // repeat for CCCc1nc(C)c2c(C)nc3ccc(OCC4CC4)cc3n12 and report
Response: 110 to 112 °C

Request: // repeat for CCCc1nc(C)c2c(C)nc3cc(OC)ccc3n12 and report
Response: 111 to 117 °C

Request: // repeat for COc1ccc2nc(N)c3c(C)nc(C4CCCCC4)n3c2c1 and report
Response: 211 to 212 °C

Request: // repeat for CCCc1nc(C)c2c(N)nc3ccc(F)cc3n12 and report
Response: 240 to 243 °C

Request: // repeat for CCc1nc(C)c2c(C)nc3ccccc3n12 and report
Response: 123 to 125 °C

Request: // repeat for Cc1nc(C2CCCCC2)n2c1c(C)nc1ccc(OCC3CC3)cc12 and report
Response: 154 to 157 °C

Request: // repeat for CCCc1nc(C)c2c(Cl)nc3ccc(F)cc3n12 [Intermediate B6] and report
Response: 133 to 135 °C

Request: // repeat for Cc1nc(C2CCCCC2)n2c1c(C)nc1ccc(F)cc12 and report
Response: 195 to 200 °C

###

Target: human recombinant PDE10A (Homo sapiens)
Construct: made in house; host or cells: SF21 insect cells (baculovirus)
Test: Inhibition of human recombinant PDE10A ([3H]-cAMP SPA, Method B)
Assay type: biochemical
Details: read-out: PDE10 inhibition IC50 [nM] PDE10A human
Would you mind telling me the reported IC50 of each entry?

Request: Which IC50 value is on record for Cc1ccccc1-c1nc(C)c2c(C)nc3c(OC(F)F)cc(OC(F)F)cc3n12 [Example 56] ?
Response: ≤ 10 nM

Request: // repeat for Cc1nn(C)c(C)c1-c1nc(C)c2c(C)nc3ccc(Cl)cc3n12 [Example 69] and report
Response: 10 to 100 nM

Request: // repeat for Cc1nc(-c2cc(F)cc(C(N)=O)c2)n2c1c(C)nc1ccc(F)cc12 [Example 136] and report
Response: 10 to 100 nM

Request: // repeat for Cc1nc(-c2ccccc2Cl)n2c1c(C)nc1cc(O)ccc12 [Example 55] and report
Response: 10 to 100 nM

Request: // repeat for COc1ccc2nc(C)c3c(C)nc(-c4ccc(F)cc4Cl)n3c2c1 [Example 105] and report
Response: ≤ 10 nM

Request: // repeat for Cc1ccccc1-c1nc(C)c2c(C)nc3c(O)cc(O)cc3n12 [Example 54] and report
Response: 10 to 100 nM

Request: // repeat for Cc1ccccc1-c1nc(C)c2c(C)nc3ccc(OC(F)(F)F)cc3n12 [Example 118] and report
Response: ≤ 10 nM

Request: // repeat for Cc1ccsc1-c1nc(C)c2c(C)nc3ccc(F)cc3n12 [Example 29] and report
Response: 10 to 100 nM

Request: // repeat for CCCc1nc(C)c2c(C)nc3c(OCC(F)(F)F)cc(OCC(F)(F)F)cc3n12 [Example 46] and report
Response: ≥ 100 nM

Request: // repeat for COc1ccc2c(c1)nc(C)c1c(C)nc(-c3ccccc3Cl)n12 [Example 47] and report
Response: 10 to 100 nM

Request: // repeat for CCCc1nc(C)c2c(C)nc3ccc(OCC4CC4)cc3n12 [Example 42] and report
Response: 10 to 100 nM

Request: // repeat for COc1ccncc1-c1nc(C)c2c(C)nc3ccc(C(F)(F)F)cc3n12 [Example 123] and report
Response: 10 to 100 nM

Request: // repeat for COc1ccncc1-c1nc(C)c2c(C)nc3c(OC)cc(F)cc3n12 [Example 80] and report
Response: ≤ 10 nM

Request: // repeat for COc1ccc2nc(C)c3c(C)nc(-c4cccc(C(N)=O)c4)n3c2c1 [Example 112] and report
Response: ≤ 10 nM

Request: // repeat for Cc1nc(-c2cc(C(N)=O)ccc2F)n2c1c(C)nc1ccccc12 [Example 102] and report
Response: 10 to 100 nM

Request: // repeat for Cc1nc(-c2cccc(C(N)=O)c2)n2c1c(C)nc1ccc(OC(F)(F)F)cc12 [Example 120] and report
Response: ≤ 10 nM

Request: // repeat for COc1ccc2nc(C)c3c(C)nc(-c4ccccc4C)n3c2c1 [Example 115] and report
Response: ≤ 10 nM

Request: // repeat for CCCc1nc(C)c2c(C)nc3c(OC)cc(OC)cc3n12 [Example 45] and report
Response: ≤ 10 nM

Request: // repeat for COc1cc2nc(C)c3c(C)nc(-c4ccncc4C)n3c2cc1Cl [Example 127] and report
Response: ≤ 10 nM

Request: // repeat for Cc1ccccc1-c1nc(C)c2c(C)nc3ccc(Cl)cc3n12 [Example 63] and report
Response: ≤ 10 nM

Request: // repeat for Cc1nc(-c2ccccc2Cl)n2c1c(C)nc1cc(OCc3c(F)cccc3F)ccc12 [Example 57] and report
Response: 10 to 100 nM

Request: // repeat for CCCc1nc(C)c2c(Cl)nc3ccc(OC)cc3n12 [Intermediate B1] and report
Response: 10 to 100 nM

Request: // repeat for Cc1nc(-c2cccc(C(N)=O)c2)n2c1c(C)nc1ccccc12 [Example 101] and report
Response: 10 to 100 nM

Request: // repeat for COc1ccc2nc(C)c3c(C)nc(-c4cccc(F)c4C)n3c2c1 [Example 109] and report
Response: ≤ 10 nM

Request: // repeat for COc1cc(F)c2nc(C)c3c(C)nc(-c4ccccc4C)n3c2c1 [Example 31] and report
Response: ≤ 10 nM
